Every entry's value here was drawn from paper PMC4434323.

# measured.on: daf-12 (F11A1.3) (Caenorhabditis elegans)
# Sequence: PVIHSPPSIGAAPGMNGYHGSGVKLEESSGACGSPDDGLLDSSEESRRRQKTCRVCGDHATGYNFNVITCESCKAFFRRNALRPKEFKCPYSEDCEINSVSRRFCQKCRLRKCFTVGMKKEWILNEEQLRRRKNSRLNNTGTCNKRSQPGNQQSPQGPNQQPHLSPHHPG
readout.type: binding signal (PBM E-score (-0.5 to 0.5))
Please give only the number in your answer, with no unit.

Prompt line: May I ask what binding signal (PBM E-score (-0.5 to 0.5)) has been recorded for AAAGTACA (double strand) [8-mer AAAGTACA] ?
Response line: 0.497

Prompt line: Ok, now AGTGCACT (double strand) [8-mer AGTGCACT]
Response line: 0.497

Prompt line: Field entry: AAGTACAT (double strand) [8-mer AAGTACAT]
Response line: 0.495

* * *

# measured.on: atf-6 (F45E6.2) (Caenorhabditis elegans)
# Sequence: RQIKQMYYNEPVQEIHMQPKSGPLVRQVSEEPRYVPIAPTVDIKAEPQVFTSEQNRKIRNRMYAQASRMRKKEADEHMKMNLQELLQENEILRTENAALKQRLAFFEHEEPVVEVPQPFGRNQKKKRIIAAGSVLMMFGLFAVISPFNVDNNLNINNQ
readout.type: binding signal (PBM E-score (-0.5 to 0.5))

Prompt line: Looking for the measured binding signal (PBM E-score (-0.5 to 0.5)) of ACGTGGCC (double strand) [8-mer ACGTGGCC] , can you help?
Response line: 0.471

Prompt line: Now the sequence ACGTCAGC (double strand) [8-mer ACGTCAGC]
Response line: 0.469

Prompt line: Thanks! And CCACGTGG (double strand) [8-mer CCACGTGG] ?
Response line: 0.48

Prompt line: Now this one: CCACGTCA (double strand) [8-mer CCACGTCA]
Response line: 0.488

Prompt line: Next record, please: CACGTCAG (double strand) [8-mer CACGTCAG]
Response line: 0.473

Prompt line: Item: ACGTGGCT (double strand) [8-mer ACGTGGCT]
Response line: 0.466

Prompt line: Also, CCACGTAG (double strand) [8-mer CCACGTAG] please.
Response line: 0.478

Prompt line: Again, but for GCCACGTA (double strand) [8-mer GCCACGTA]
Response line: 0.48

Prompt line: ACCACGTA (double strand) [8-mer ACCACGTA] ?
Response line: 0.457

Prompt line: Likewise for CTTACGTA (double strand) [8-mer CTTACGTA] ?
Response line: 0.456

* * *

Can you tell me binding signal (PBM E-score (-0.5 to 0.5)) for the items I'm about to list?
# measured.on: ztf-6 (W06H12.1) (Caenorhabditis elegans)
# Sequence: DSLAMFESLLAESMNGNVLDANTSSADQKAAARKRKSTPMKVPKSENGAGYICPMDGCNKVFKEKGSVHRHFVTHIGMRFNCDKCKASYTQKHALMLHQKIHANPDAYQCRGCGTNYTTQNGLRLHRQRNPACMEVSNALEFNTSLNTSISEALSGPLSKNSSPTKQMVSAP
// return just the number, without any unit appended

Prompt line: Fill in: binding signal (PBM E-score (-0.5 to 0.5)) of AGTTTCAG (double strand) [8-mer AGTTTCAG] is ___
Response line: 0.496

Prompt line: Likewise for GCTGAAAA (double strand) [8-mer GCTGAAAA] ?
Response line: 0.492

Prompt line: Again, but for ATTTTCAG (double strand) [8-mer ATTTTCAG]
Response line: 0.493
